- measurement.parameters: in isopropanol, 323.15 K
property.name: solubility (mole fraction)
Form field (numeric): enter value without unit.

Asked: Query: solubility (mole fraction); subject: "Cl.O=C(O)c1cn(-c2ccc(F)cc2)c2cc(N3CCNCC3)c(F)cc2c1=O"
Given back: 0.00161

###

- measurement.parameters: in ethyl acetate, 333.15 K
property.name: solubility (mole fraction)

Asked: Query: solubility (mole fraction); subject: "Cl.O=C(O)c1cn(-c2ccc(F)cc2)c2cc(N3CCNCC3)c(F)cc2c1=O"
Given back: 0.0163

###

- measurement.parameters: in n-hexane, 328.15 K
property.name: solubility (mole fraction)
Form field (numeric): enter value without unit.

Asked: Query: solubility (mole fraction); subject: "Cl.O=C(O)c1cn(-c2ccc(F)cc2)c2cc(N3CCNCC3)c(F)cc2c1=O"
Given back: 0.00137

###

- measurement.parameters: in ethanol, 308.15 K
property.name: solubility (mole fraction)

Asked: Query: solubility (mole fraction); subject: "Cl.O=C(O)c1cn(-c2ccc(F)cc2)c2cc(N3CCNCC3)c(F)cc2c1=O"
Given back: 0.00043

###

- measurement.parameters: in ethanol, 278.15 K
property.name: solubility (mole fraction)
Form field (numeric): enter value without unit.

Asked: Query: solubility (mole fraction); subject: "Cl.O=C(O)c1cn(-c2ccc(F)cc2)c2cc(N3CCNCC3)c(F)cc2c1=O"
Given back: 0.00019

###

- measurement.parameters: in isopropanol, 333.15 K
property.name: solubility (mole fraction)

Asked: Query: solubility (mole fraction); subject: "Cl.O=C(O)c1cn(-c2ccc(F)cc2)c2cc(N3CCNCC3)c(F)cc2c1=O"
Given back: 0.00185

###

- measurement.parameters: in n-butanol, 288.15 K
property.name: solubility (mole fraction)

Asked: Query: solubility (mole fraction); subject: "Cl.O=C(O)c1cn(-c2ccc(F)cc2)c2cc(N3CCNCC3)c(F)cc2c1=O"
Given back: 0.00179

###

- measurement.parameters: in isopropanol, 318.15 K
property.name: solubility (mole fraction)
Form field (numeric): enter value without unit.

Asked: Query: solubility (mole fraction); subject: "Cl.O=C(O)c1cn(-c2ccc(F)cc2)c2cc(N3CCNCC3)c(F)cc2c1=O"
Given back: 0.00147

###

- measurement.parameters: in DMF, 303.15 K
property.name: solubility (mole fraction)
Form field (numeric): enter value without unit.

Asked: Query: solubility (mole fraction); subject: "Cl.O=C(O)c1cn(-c2ccc(F)cc2)c2cc(N3CCNCC3)c(F)cc2c1=O"
Given back: 0.00232

###

- measurement.parameters: in DMF, 293.15 K
property.name: solubility (mole fraction)
Form field (numeric): enter value without unit.

Asked: Query: solubility (mole fraction); subject: "Cl.O=C(O)c1cn(-c2ccc(F)cc2)c2cc(N3CCNCC3)c(F)cc2c1=O"
Given back: 0.00183

###

- measurement.parameters: in ethyl acetate, 313.15 K
property.name: solubility (mole fraction)
Form field (numeric): enter value without unit.

Asked: Query: solubility (mole fraction); subject: "Cl.O=C(O)c1cn(-c2ccc(F)cc2)c2cc(N3CCNCC3)c(F)cc2c1=O"
Given back: 0.00961

###

- measurement.parameters: in ethanol, 288.15 K
property.name: solubility (mole fraction)
Form field (numeric): enter value without unit.

Asked: Query: solubility (mole fraction); subject: "Cl.O=C(O)c1cn(-c2ccc(F)cc2)c2cc(N3CCNCC3)c(F)cc2c1=O"
Given back: 0.00025
